B1: library; a variant is named by its letters at N, in order (parent)
chain: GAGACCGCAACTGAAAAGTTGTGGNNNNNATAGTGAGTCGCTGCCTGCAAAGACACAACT

Variants of: B1
Experiment: ligation selection enrichment (abundance after / before one-round selection) (fold); higher = more template-directed ligation activity
Conditions: with T7Psub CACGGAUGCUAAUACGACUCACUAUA; MgCl2 25 mM; 42 °C; 4 h; pH 8.5
This section presents variants with their documented ligation selection enrichment values.
Kindly provide the number alone.

GAGACCGCAACTGAAAAGTTGTGGATTTCATAGTGAGTCGCTGCCTGCAAAGACACAACT [ATTTC]	0.201
GAGACCGCAACTGAAAAGTTGTGGAAGGGATAGTGAGTCGCTGCCTGCAAAGACACAACT [AAGGG]	0.331

Let us examine a further case.
Query block: Name the recorded ligation selection enrichment for GAGACCGCAACTGAAAAGTTGTGGGTTTGATAGTGAGTCGCTGCCTGCAAAGACACAACT [GTTTG] .
Result block: 2.05

Recorded values, source the supplement of paper PMC10219994.
